Catalogue of compounds with associated DC50
- targetEntity: Cbl-b (Homo sapiens)
- Construct: Cbl-b-HiBit KI Jurkat Cells were purchased from Promega; host or cells: Cbl-b-HiBiT knock-in Jurkat cells
- assayNotes: Cbl-b Degradation Method A (FACS, anti-Cbl-b antibody staining)
- Type: cell-based
- experimentalContext: Cbl-b-HiBit KI Jurkat Cells, incubated at least 20 hours; half maximal degradation; read-out: Cbl-b Degredation Method A IC50

Some solved cases for reference:
Cn1cnnc1C[C@]1(c2cccc(N3Cc4c(cc(CN5CCN(C[C@H]6CC[C@H](OC7CCN(c8cccc9c8nc(OC(F)F)n9C8CCC(=O)NC8=O)CC7)CC6)CC5(C)C)cc4C(F)(F)F)C3=O)c2)C[C@H](C#N)C1 (stereo partly drawn) [Example 325]
50 to 500 nM
Cn1cnnc1C[C@]1(c2cccc(N3Cc4c(cc(CN5CCN(C[C@H]6CC[C@H](OC7CCN(c8ccc9c(c8)n(C)c(=O)n9C8CCC(=O)NC8=O)CC7)CC6)CC5)cc4C(F)(F)F)C3=O)c2)C[C@H](C#N)C1 (stereo partly drawn) [Example 215]
< 5 nM
C[C@H]1CN(C[C@H]2CC[C@@H](OC3CCN(c4ccc5c(c4F)CN(C4CCC(=O)NC4=O)C5=O)CC3)CC2)CCN1Cc1cc2c(c(C(F)(F)F)c1)CN(c1cccc(C3(Cc4nncn4C)COC3)c1)C2=O (stereo partly drawn) [Example 194]
< 5 nM
COc1c(N2CCC(CN3CCC4(CC3)CN(c3cc5c(c(C(F)(F)F)c3)CN(c3cccc([C@]6(Cc7nncn7C)C[C@@H](C#N)C6)c3)C5=O)C4)CC2)ccc2c1CN(C1CCC(=O)NC1=O)C2=O (stereo partly drawn) [Example 174]
5 to 50 nM
Cn1cnnc1CC1(c2cccc(N3Cc4c(cc(CN5CC6(CCN(CC7CCN(c8ccc9c(c8F)CN(C8CCC(=O)NC8=O)C9=O)CC7)CC6)C5)cc4C(F)(F)F)C3=O)c2)COC1 (stereo not drawn) [Example 25]
5 to 50 nM

Pending compound:
Exercise: // returns reported DC50 for input CC1c2nc(N3CCC(O[C@H]4CC[C@H](CN5CCN(Cc6cc7c(c(C(F)(F)F)c6)CN(c6cccc(C8(Cc9nncn9C)COC8)c6)C7=O)CC5(C)C)CC4)CC3)ccc2C(=O)N1C1CCC(=O)NC1=O (mixture of isomers) [Example 236]
Key: < 5 nM

====

Each entry below carries its reported DC50.
- targetEntity: Cbl-b (Homo sapiens)
- Construct: Cbl-b-HiBit KI Jurkat Cells were purchased from Promega; host or cells: Cbl-b-HiBiT knock-in Jurkat cells
- assayNotes: Cbl-b Degradation Method B (Nano-Glo HiBiT lytic detection)
- Type: cell-based
- experimentalContext: Cbl-b-HiBit KI Jurkat Cells, incubated at least 6-24 hours; half maximal degradation; read-out: Cbl-b Degredation Method B IC50

Worked cases, DC50 given:
Cn1cnnc1CC1(c2cccc(N3Cc4c(cc(CN5CCC(c6ccc7c(c6)CN(C6CCC(=O)NC6=O)C7=O)CC5)cc4C(F)(F)F)C3=O)c2)COC1 (stereo not shown) [Example 34]
> 500 nM
CC(C)n1c(=O)n(C2CCC(=O)NC2=O)c2cccc(N3CCC(CN4CCC5(CC4)CN(c4cc6c(c(C(F)(F)F)c4)CN(c4cccc([C@]7(Cc8nncn8C)C[C@@H](C#N)C7)c4)C6=O)C5)CC3)c21 (stereo partly shown) [Example 284]
< 5 nM
Cn1cnnc1CC1(c2cccc(N3Cc4c(cc(CN5CCC(CC6CN(c7ccc8c(c7)C(=O)N(C7CCC(=O)NC7=O)C8=O)C6)CC5)cc4C(F)(F)F)C3=O)c2)COC1 (stereo not shown) [Example 79]
> 500 nM
Cn1cnnc1CC1(c2cccc(N3Cc4c(cc(CN5CCC(CN(C)[C@H]6C[C@H](Oc7ccc8c(c7)C(=O)N(C7CCC(=O)NC7=O)C8=O)C6)CC5)cc4C(F)(F)F)C3=O)c2)COC1 (stereo partly shown) [Example 60]
> 500 nM
Cn1cnnc1C[C@]1(c2cccc(N3Cc4c(cc(N5CC6(CCN(CC7CCN(c8ccc9c(c8Cl)CN(C8CCC(=O)NC8=O)C9=O)CC7)CC6)C5)cc4C(F)(F)F)C3=O)c2)C[C@H](C#N)C1 (stereo partly shown) [Example 173]
< 5 nM

Exercise: I have this molecule here, Cn1cnnc1CC1(c2cccc(N3Cc4c(cc(CN5CCC(CN6CC7(CCN(c8ccc9c(c8)CN(C8CCC(=O)NC8=O)C9=O)CC7)C6)CC5)cc4C(F)(F)F)C3=O)c2)COC1 (stereo not shown) [Example 66] , and I need its recorded DC50.
Key: > 500 nM

Exercise: Entry under review: CC(C)n1c(=O)n(C2CCC(=O)NC2=O)c2ccc(N3CCC(O[C@H]4CC[C@@H](CN5CCN(C[C@H]6CCCN(Cc7cc(C(F)(F)F)c8cn(-c9cccc(C%10(Cc%11nncn%11C)COC%10)c9)nc8c7)C6)C(C)(C)C5)CC4)CC3)cc21 (stereo partly shown) [Example 266] . Reported DC50?
Key: < 5 nM

Exercise: Which value of DC50 has been reported for CC1c2nc(N3CCC(OC4CCC(CN5[C@H](C)CN(Cc6cc7c(c(C(F)(F)F)c6)CN(c6cccc(C8(Cc9nncn9C)COC8)c6)C7=O)C[C@@H]5C)CC4)CC3)ccc2C(=O)N1C1CCC(=O)NC1=O (stereo partly shown) [Example 243] in the records?
Key: < 5 nM

Exercise: // lookup DC50 for CC1c2c(cc(CN3CCC[C@H](CN4CCN(C[C@H]5CC[C@H](OC6CCN(c7ccc8c(c7F)CN(C7CCC(=O)NC7=O)C8=O)CC6)CC5)CC4(C)C)C3)cc2C(F)(F)F)C(=O)N1c1cccc(C2(Cc3nncn3C)COC2)c1 (stereo partly shown) [Example 276]
Key: 5 to 50 nM

Exercise: Please report the recorded DC50 for CC(C)n1c(=O)n(C2CCC(=O)NC2=O)c2ccc(N3CCN(Cc4ccc(-c5cc6c(c(C(F)(F)F)c5)CN(c5cccc([C@]7(Cc8nncn8C)C[C@@H](C#N)C7)c5)C6=O)cc4)CC3)cc21 (stereo partly shown) [Example 295] .
Key: > 500 nM

Exercise: Requested read-out: DC50. Entry: Cn1cnnc1CC1(c2cccc(N3Cc4c(cc(CN5CCC(CN6CCC(c7ccc8c(c7)C(=O)N(C7CCC(=O)NC7=O)C8=O)CC6)CC5)cc4C(F)(F)F)C3=O)c2)COC1 (stereo not shown) [Example 82]
Key: > 500 nM

Exercise: What does the data say about its DC50? Entry: Cn1cnnc1CC1(c2cccc(N3Cc4c(cc(CN5CCC(CN6CCN(c7ccc8c(c7)C(=O)N(C7CCC(=O)NC7=O)C8=O)CC6)CC5)cc4C(F)(F)F)C3=O)c2)COC1 (stereo not shown) [Example 28]
Key: > 500 nM

Exercise: Dear colleague, I am looking for the recorded DC50 of the following molecule: Cn1cnnc1CC1(c2cccc(N3Cc4c(cc(CN5CCN(c6ccc(C(=O)NC7CCC(=O)NC7=O)c(F)c6)CC5)cc4C(F)(F)F)C3=O)c2)COC1 (stereo not shown) [Example 35]
Key: > 500 nM

====

- targetEntity: Cbl-b (Homo sapiens, UniProt Q13191)
- Construct: Cbl-b-HiBit KI Jurkat Cells were purchased from Promega; host or cells: Cbl-b-HiBiT knock-in Jurkat cells
- Sequence (Q13191 whole entry): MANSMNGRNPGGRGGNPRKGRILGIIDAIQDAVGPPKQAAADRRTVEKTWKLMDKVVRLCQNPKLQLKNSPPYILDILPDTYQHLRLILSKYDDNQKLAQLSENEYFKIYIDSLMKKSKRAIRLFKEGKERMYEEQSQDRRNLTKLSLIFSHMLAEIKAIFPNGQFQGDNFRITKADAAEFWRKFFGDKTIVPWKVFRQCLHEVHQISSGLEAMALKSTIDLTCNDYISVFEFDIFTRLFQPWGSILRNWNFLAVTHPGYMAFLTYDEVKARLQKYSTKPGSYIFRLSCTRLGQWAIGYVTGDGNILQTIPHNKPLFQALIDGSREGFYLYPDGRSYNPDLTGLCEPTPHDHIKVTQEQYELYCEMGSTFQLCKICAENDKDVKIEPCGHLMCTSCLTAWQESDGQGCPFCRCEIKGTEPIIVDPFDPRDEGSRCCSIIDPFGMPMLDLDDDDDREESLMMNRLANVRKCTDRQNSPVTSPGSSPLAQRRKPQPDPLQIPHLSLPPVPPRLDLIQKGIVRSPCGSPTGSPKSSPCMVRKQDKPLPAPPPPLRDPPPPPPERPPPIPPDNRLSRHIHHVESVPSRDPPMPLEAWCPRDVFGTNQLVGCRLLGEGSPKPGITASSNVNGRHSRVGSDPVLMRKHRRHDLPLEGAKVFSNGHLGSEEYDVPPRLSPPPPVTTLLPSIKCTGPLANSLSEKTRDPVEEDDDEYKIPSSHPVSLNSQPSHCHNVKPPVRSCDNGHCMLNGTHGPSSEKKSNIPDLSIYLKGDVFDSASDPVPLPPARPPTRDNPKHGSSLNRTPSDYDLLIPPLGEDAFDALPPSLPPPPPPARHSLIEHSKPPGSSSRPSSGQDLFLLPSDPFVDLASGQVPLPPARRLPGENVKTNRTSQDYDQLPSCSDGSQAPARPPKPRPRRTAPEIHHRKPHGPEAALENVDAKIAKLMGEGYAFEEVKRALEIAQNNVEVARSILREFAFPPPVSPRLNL
- assayNotes: Cbl-b Degradation Method B (Nano-Glo HiBiT lytic detection)
- Format: cell-based
- experimentalContext: Cbl-b-HiBit KI Jurkat Cells, incubated at least 6-24 hours; half maximal degradation; read-out: Cbl-b Degredation Method B IC50
Measured DC50, listed per entry.

Reference set, count: 4
Cn1cnnc1C[C@]1(c2cccc(N3Cc4c(cc(CN5CCN(C[C@H]6CC[C@H](OC7CCN(c8ccc(C9CCC(=O)NC9=O)cn8)CC7)CC6)CC5)cc4C(F)(F)F)C3=O)c2)C[C@H](C#N)C1 (some centres unmarked) [Example 210]
> 500 nM
Cn1cnnc1CC1(c2cccc(-n3cc4c(C(F)(F)F)cc(CN5CCC[C@H](CN6CCC(CN7CCN(c8ccc9c(c8F)CN(C8CCC(=O)NC8=O)C9=O)CC7)CC6)C5)cc4n3)c2)COC1 (some centres unmarked) [Example 256]
> 500 nM
Cn1cnnc1CC1(c2cccc(-n3cc4c(C(F)(F)F)cc(CN5CCC[C@H](CN6CCN(CC7CCN(c8ccc9c(c8F)CN(C8CCC(=O)NC8=O)C9=O)CC7)CC6(C)C)C5)cc4n3)c2)COC1 (some centres unmarked) [Example 285]
> 500 nM
Cn1cnnc1CC1(c2cccc(N3Cc4c(cc(N5CCN(C[C@H]6CC[C@H](OC7CCN(c8ccc9c(c8F)CN(C8CCC(=O)NC8=O)C9=O)CC7)CC6)CC5)cc4C(F)(F)F)C3=O)c2)COC1 (some centres unmarked) [Example 139]
5 to 50 nM

Exercise: What does the record list as DC50 for COC1CC(Cc2nncn2C)(c2cccc(N3Cc4c(cc(CN5CCN(C[C@H]6CC[C@H](OC7CCN(c8ccc9c(n8)C(C)N(C8CCC(=O)NC8=O)C9=O)CC7)CC6)CC5(C)C)cc4C(F)(F)F)C3=O)c2)C1 (some centres unmarked) [Example 294] ?
Key: < 5 nM

Ref: patent US20260184710A1
